biological target: human A2B receptor (Homo sapiens); construct: expressed in transfected cells; host or cells: HEK293; test: Functional A2B receptor activity, recombinant HEK293 cells, cAMP (HTRF), agonist NECA; format: cell-based
Sequence (P29275 whole entry): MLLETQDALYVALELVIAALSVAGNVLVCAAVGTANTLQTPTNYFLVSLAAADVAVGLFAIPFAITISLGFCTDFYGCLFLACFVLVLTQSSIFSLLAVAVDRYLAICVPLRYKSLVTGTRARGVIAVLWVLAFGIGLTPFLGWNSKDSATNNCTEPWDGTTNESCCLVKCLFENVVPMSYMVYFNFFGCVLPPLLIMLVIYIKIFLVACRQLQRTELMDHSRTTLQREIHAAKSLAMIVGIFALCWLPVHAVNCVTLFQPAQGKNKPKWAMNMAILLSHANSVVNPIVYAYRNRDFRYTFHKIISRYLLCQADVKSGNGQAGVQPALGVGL
pIC50: −log10 of the molar value.
EXPERIMENTAL READOUT: pIC50

COc1ccc(C2CCOCC2)c2sc(NC(=O)N3CCC4(CC3)OCCO4)nc12 [reference compound] :: > 6.00

# context switch: different compound, same pIC50
## Task Look up and report measured pIC50 (human A2B receptor (Homo sapiens)) for the following compound: [2H]C([2H])([2H])Oc1ncc(C2=CCOCC2)c2sc(NC(=O)N3CC[C@@]4(CCCOC4)C3)nc12
## Result > 7.00

---

target: human A2B receptor (Homo sapiens); construct: expressed in transfected cells; host or cells: HEK293; assay: Functional A2B receptor activity, recombinant HEK293 cells, cAMP (HTRF), agonist NECA; type: cell-based; conditions: read-out: Functional A2B receptor activity, HEK293, cAMP, IC50
EXPERIMENTAL READOUT: IC50

Known IC50 results, listed for orientation:
COc1ncc(C2=CCOCC2)c2sc(NC(=O)c3ccc(Cn4ccnc4)cc3)nc12 [Compound 82] :: < 10 nM
COc1ncc(C2=CCOCC2)c2sc(NC(=O)Nc3ccc(NC(C)=O)c(C)c3)nc12 [Compound 92] :: < 10 nM
COc1cnc(C2CCOCC2)c2sc(NC(=O)N3CCC(O)CC3)nc12 [drawing 190, reference compound] :: < 1000 nM
COc1nc(F)c(N2CCOCC2)c2sc(NC(=O)C3CC3)nc12 [Compound 4] :: < 10 nM
COc1ncc(C2=CCOCC2)c2sc(NC(=O)N3CC[C@]4(CCCNC4)C3)nc12 [Compound 122] :: < 100 nM
COc1cnc(N2CCOCC2)c2sc(NC(=O)N3CCC4(CCCO4)CC3)nc12 [drawing 189, reference compound] :: < 1000 nM
COc1ncc(C2=CCOCC2)c2sc(NC(=O)c3ccc(C(=O)N4CCN(C)CC4)cc3)nc12 [Compound 125] :: < 10 nM

# context switch: different molecule, same IC50
## Task Return IC50 (reported value) for this molecule: COc1ncc(-c2ccccc2)c2sc(NC(=O)N3CCC(N4C(=O)CCC4=O)CC3)nc12 [Compound 99]
## Result < 10 nM

---

experiment: Pharmacokinetic properties in mouse after single intravenous and oral administration; format: in vivo; settings: female, plasma, 0.2 mg/kg, read-out: t½ (converted)
EXPERIMENTAL READOUT: half-life (min)
Just the number in min, nothing appended.

## Task Return half-life (reported value) for this compound: COc1ncc(C2=CCOCC2)c2sc(NC(=O)N3CC[C@@]4(CCCOC4)C3)nc12
## Result 54.6

---

target: human A3 receptor (Homo sapiens); construct: expressed in transfected cells; host or cells: CHO; test: Functional A3 receptor activity, recombinant CHO cells, cAMP (HTRF), forskolin, agonist IB-MECA; format: cell-based; settings: recombinant CHO cells, forskolin, agonist IB-MECA; read-out: Functional A3 receptor activity, CHO, cAMP, IC50
Sequence (P0DMS8 whole entry): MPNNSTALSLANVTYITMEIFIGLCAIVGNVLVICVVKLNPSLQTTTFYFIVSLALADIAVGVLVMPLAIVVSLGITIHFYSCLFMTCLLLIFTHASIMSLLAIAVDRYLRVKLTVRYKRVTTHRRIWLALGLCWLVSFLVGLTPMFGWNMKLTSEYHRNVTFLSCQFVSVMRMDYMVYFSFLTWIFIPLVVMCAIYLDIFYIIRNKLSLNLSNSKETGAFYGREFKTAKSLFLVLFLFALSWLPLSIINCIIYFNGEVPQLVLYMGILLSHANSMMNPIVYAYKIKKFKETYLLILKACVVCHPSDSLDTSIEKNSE
EXPERIMENTAL READOUT: IC50

COc1ncc(-c2ccc(C)o2)c2sc(NC(=O)N3CCC4(CCOCC4)C3)nc12 [Compound 114] :: > 1000 nM
COc1nc(F)c(C2CCOCC2)c2sc(NC(=O)N3CCC4(CCCOC4)C3)nc12 (centres unmarked) [Compound 31] :: > 1000 nM

## Task Return IC50 (reported value) for this molecule: COc1ncc(C2=CCOC2)c2sc(NC(=O)N3CCC4(CCOCC4)C3)nc12 [Compound 44]
## Result > 1000 nM

## Task Return IC50 (reported value) for this molecule: COc1ncc(-c2ccccc2)c2sc(NC(=O)c3cn[nH]c3)nc12 [Compound 117]
## Result < 1000 nM

## Task Return IC50 (reported value) for this molecule: COc1ncc(C2=CCOCC2)c2sc(NC(=O)c3cnn(-c4ccccc4)c3)nc12 [Compound 156]
## Result > 1000 nM
